Catalogue of compounds with associated pIC50
Biological target: human recombinant ENPP1 enzymes (Homo sapiens, UniProt P22413)
Assay: ENPP1 Enzyme Assay with cGAMP Substrate (AMP-Glo)
Conditions: human recombinant ENPP1 3 ng/reaction, cGAMP 5 μM, 37° C. 90 minutes, average of two or more tests; read-out: Enzymatic activity IC50
pIC50: −log10 of the molar value. Counter-ions that a name gives are not always drawn.

compound="CCOP(=O)(O)Cc1ccc(-c2ccnc3[nH]c(=O)ccc23)cc1 [Example 74]" reported_measurement="5.00 to 6.00"
compound="NS(=O)(=O)N1CCc2ccc(Nc3ccnc4[nH]c(=O)ccc34)cc2C1 [Example 102, dihydrochloride]" reported_measurement="> 6.00"
compound="NCCc1ccc(F)c(Nc2ccnc3[nH]c(=O)ccc23)c1 [Example 79, dihydrochloride]" reported_measurement="5.00 to 6.00"

Q: If you can, please state the reported pIC50 value of Cl.O=c1ccc2c(-c3ccc(CNC4CC4)cc3F)ccnc2[nH]1 [Example 22, hydrochloride] .
Result: 5.00 to 6.00

Q: Same thing, different compound: NS(=O)(=O)NCc1ccc(Nc2ccnc3[nH]c(=O)ccc23)cc1 [Example 98, dihydrochloride]
Result: 5.00 to 6.00

Q: Same thing, different compound: O=c1ccc2c(-c3ccc(CNS(=O)(=O)c4cccs4)cc3)ccnc2[nH]1 [Example 70]
Result: > 6.00

Q: Same thing, different compound: NS(=O)(=O)NCc1cc(Nc2ccnc3[nH]c(=O)ccc23)ccc1F [Example 90, dihydrochloride]
Result: > 6.00

* * *

Target: human recombinant ENPP1 enzymes (Homo sapiens, UniProt P22413)
Test: ENPP1 Enzyme Assay with cGAMP Substrate (AMP-Glo)
Conditions: human recombinant ENPP1 3 ng/reaction, cGAMP 5 μM, 37° C. 90 minutes, average of two or more tests; read-out: Enzymatic activity IC50
Counter-ions that a name gives are not always drawn.
Catalogue of compounds with associated IC50

compound="NCc1ccc(Nc2ccnc3[nH]c(=O)ccc23)cc1 [Example 82, dihydrochloride]" assay_target="human recombinant ENPP1 enzymes (Homo sapiens, UniProt P22413)" measured_metric=IC50 reported_measurement="< 1 µM"

Q: If you can, please state the reported IC50 value of CCNCc1ccc(-c2ccnc3[nH]c(=O)ccc23)cc1F.Cl [Example 24, hydrochloride] .
Result: > 10 µM

Q: Same thing, different compound: CN(Cc1ccc(-c2ccnc3[nH]c(=O)ccc23)cc1F)S(N)(=O)=O.Cl [Example 52, hydrochloride]
Result: < 1 µM

Q: Same thing, different compound: CN[C@H](C)c1ccc(-c2ccnc3[nH]c(=O)ccc23)cc1 [Example 17, hydrochloride]
Result: 1 to 10 µM

Q: Same thing, different compound: NS(=O)(=O)Nc1cccc(-c2ccnc3[nH]c(=O)ccc23)c1 [Example 35, hydrochloride]
Result: < 1 µM

Q: Same thing, different compound: `O=c1ccc2c(-c3ccc(CP(=O)(O)O)cc3)ccnc2[nH]1`
Result: < 1 µM

Q: Same thing, different compound: `NS(=O)(=O)NCC1CCN(c2ccnc3[nH]c(=O)ccc23)CC1`
Result: < 1 µM

* * *

Target: human recombinant ENPP1 enzymes (Homo sapiens)
Sequence (P22413 1-925): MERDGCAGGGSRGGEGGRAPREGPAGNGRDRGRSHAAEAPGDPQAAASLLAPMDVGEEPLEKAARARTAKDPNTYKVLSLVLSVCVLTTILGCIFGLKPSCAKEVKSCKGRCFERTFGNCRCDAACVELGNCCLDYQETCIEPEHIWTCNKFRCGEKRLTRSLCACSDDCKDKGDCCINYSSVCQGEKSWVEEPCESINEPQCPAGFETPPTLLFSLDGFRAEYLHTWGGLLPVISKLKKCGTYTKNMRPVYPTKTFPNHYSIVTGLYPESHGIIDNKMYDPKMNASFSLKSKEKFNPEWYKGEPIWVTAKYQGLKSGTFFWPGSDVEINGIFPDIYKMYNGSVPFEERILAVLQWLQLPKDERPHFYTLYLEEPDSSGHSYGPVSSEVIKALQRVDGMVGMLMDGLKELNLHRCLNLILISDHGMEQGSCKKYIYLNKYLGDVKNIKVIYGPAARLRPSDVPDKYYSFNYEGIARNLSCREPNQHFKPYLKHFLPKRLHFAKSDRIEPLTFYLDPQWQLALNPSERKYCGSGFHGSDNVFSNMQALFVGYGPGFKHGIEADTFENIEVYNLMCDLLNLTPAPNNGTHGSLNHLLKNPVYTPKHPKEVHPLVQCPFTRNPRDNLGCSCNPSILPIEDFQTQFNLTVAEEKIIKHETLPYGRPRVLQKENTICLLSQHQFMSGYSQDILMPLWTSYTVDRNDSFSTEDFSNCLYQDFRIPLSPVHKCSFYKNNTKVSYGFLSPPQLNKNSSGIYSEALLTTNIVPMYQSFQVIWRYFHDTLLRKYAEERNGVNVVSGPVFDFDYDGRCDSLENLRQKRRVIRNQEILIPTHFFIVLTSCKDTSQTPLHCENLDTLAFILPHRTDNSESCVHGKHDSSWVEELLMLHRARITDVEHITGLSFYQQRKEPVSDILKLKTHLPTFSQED
Test: ENPP1 Enzyme Assay with cGAMP Substrate (AMP-Glo)
Settings: human recombinant ENPP1 3 ng/reaction, cGAMP 5 μM, 37° C. 90 minutes, average of two or more tests; read-out: Enzymatic activity IC50
pIC50: −log10 of the molar value. Counter-ions that a name gives are not always drawn.
measured metric: pIC50

Illustrative cases are given below, each with its answer.
compound="NS(=O)(=O)NCc1ccc(-c2ccnc3c2CCC(=O)N3)cc1 [Example 141]" reported_measurement="> 6.00"
compound="CC(C)(C)OC(=O)NS(=O)(=O)N1CCc2ccc(-c3ccnc4c3CCC(=O)N4)cc2C1 [Example 138]" reported_measurement="5.00 to 6.00"
compound="CCN(CCc1cccc(Nc2ccnc3[nH]c(=O)ccc23)c1)S(N)(=O)=O [Example 94, dihydrochloride]" reported_measurement="> 6.00"

Q: If you can, please state the reported pIC50 value of CC(C)(C)OC(=O)Nc1cccc(-c2ccnc3[nH]c(=O)ccc23)c1 [Example 1] .
Result: 5.00 to 6.00

* * *

Catalogue of compounds with associated IC50
Molecular target: human recombinant ENPP1 enzymes (Homo sapiens, UniProt P22413)
Construct: purchased R & D systems
Assay: ENPP1 Enzyme Assay with cGAMP Substrate (AMP-Glo)
Type: biochemical
Settings: human recombinant ENPP1 3 ng/reaction, cGAMP 5 μM, 37° C. 90 minutes, average of two or more tests; read-out: Enzymatic activity IC50
Procedure: ENPP1 hydrolyzes nucleotides or nucleotide derivatives to produce nucleoside-5′-monophosphate and pyrophosphate. In addition, ENPP1 hydrolyzes 2′,3′-cGAMP to produce 5′-adenosine monophosphate (AMP) and 5′-guanosine monophosphate (GMP). AMP produced from the reaction is measured using the AMP-Glo® kit (Promega). The AMP-Glo® kit contains two reagents. […] The second reagent converts ADP to ATP which is used to generate luminescence in the luciferase reaction. […]
Counter-ions that a name gives are not always drawn.

compound="CC(C)N(Cc1ccc(-c2ccnc3[nH]c(=O)ccc23)c(F)c1)S(N)(=O)=O [Example 57, hydrochloride]" reported_measurement="> 10000 nM"
compound="O=c1ccc2c(Nc3ccc4c(c3)CNC4)ccnc2[nH]1 [Example 84, dihydrochloride]" reported_measurement="< 1000 nM"
compound="O=c1ccc2c(-c3ccc4c(c3)CNCC4)ccnc2[nH]1 [Example 27, hydrochloride]" reported_measurement="1000 to 10000 nM"
compound="Cl.NCc1ccc(-c2ccnc3[nH]c(=O)ccc23)cc1 [Example 10, hydrochloride]" reported_measurement="< 1000 nM"
compound=CC(C)(C)OC(=O)NCc1cccc(-c2ccnc3[nH]c(=O)ccc23)c1 reported_measurement="1000 to 10000 nM"

Q: If you can, please state the reported IC50 value of NCc1ccc(-c2ccnc3c2CCC(=O)N3)cc1 [Example 133, hydrochloride] .
Result: < 1000 nM

Q: Same thing, different compound: C[C@H](c1ccc(-c2ccnc3[nH]c(=O)ccc23)cc1)N(C)S(N)(=O)=O [Example 59, hydrochloride]
Result: < 1000 nM

Q: Same thing, different compound: CN[C@@H](C)c1ccc(-c2ccnc3[nH]c(=O)ccc23)cc1 [Example 18, hydrochloride]
Result: < 1000 nM

Q: Same thing, different compound: NS(=O)(=O)NCc1ccc(-c2ccnc3[nH]c(=O)ccc23)c(F)c1 [Example 42, hydrochloride]
Result: < 1000 nM

Q: Same thing, different compound: CN(CCc1cccc(Nc2ccnc3[nH]c(=O)ccc23)c1)S(N)(=O)=O [Example 93, dihydrochloride]
Result: < 1000 nM

* * *

Catalogue of molecules with associated pIC50
Molecular target: human recombinant ENPP1 enzymes (Homo sapiens, UniProt P22413)
Sequence (P22413 1-925): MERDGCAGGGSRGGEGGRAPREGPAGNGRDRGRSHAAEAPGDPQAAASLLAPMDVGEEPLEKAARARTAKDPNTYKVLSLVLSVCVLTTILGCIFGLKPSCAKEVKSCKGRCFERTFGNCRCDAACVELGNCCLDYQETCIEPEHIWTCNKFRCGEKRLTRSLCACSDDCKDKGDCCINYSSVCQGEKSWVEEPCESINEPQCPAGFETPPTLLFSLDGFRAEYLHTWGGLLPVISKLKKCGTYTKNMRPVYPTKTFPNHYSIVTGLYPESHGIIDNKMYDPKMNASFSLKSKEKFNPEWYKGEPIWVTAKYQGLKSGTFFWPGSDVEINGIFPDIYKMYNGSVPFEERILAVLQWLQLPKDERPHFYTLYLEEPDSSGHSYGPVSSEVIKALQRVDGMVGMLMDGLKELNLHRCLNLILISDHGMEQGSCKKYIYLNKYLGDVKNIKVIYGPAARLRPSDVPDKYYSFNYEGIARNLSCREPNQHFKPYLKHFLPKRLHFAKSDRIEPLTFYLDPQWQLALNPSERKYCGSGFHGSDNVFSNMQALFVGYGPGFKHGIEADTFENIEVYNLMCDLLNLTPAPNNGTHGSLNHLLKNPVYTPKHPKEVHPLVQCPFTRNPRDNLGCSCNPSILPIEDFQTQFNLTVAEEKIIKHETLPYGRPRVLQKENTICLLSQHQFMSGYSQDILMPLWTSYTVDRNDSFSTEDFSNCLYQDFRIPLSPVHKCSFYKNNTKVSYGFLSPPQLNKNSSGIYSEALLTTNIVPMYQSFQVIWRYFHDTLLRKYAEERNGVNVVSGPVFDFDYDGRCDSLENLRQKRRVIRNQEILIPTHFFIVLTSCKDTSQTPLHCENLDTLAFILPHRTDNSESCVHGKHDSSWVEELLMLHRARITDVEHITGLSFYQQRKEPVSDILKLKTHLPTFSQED
Experiment: ENPP1 Enzyme Assay with cGAMP Substrate (AMP-Glo)
Settings: human recombinant ENPP1 3 ng/reaction, cGAMP 5 μM, 37° C. 90 minutes, average of two or more tests; read-out: Enzymatic activity IC50
pIC50: −log10 of the molar value. Counter-ions that a name gives are not always drawn.

Illustrative cases are given below, each with its answer.
molecule="NS(=O)(=O)N1CCCc2ccc(Nc3ccnc4[nH]c(=O)ccc34)cc2C1 [Example 103, dihydrochloride]" measured_metric=pIC50 reported_measurement="5.00 to 6.00"
molecule="NC1CCN(c2ccnc3[nH]c(=O)ccc23)CC1 [Example 113, hydrochloride]" measured_metric=pIC50 reported_measurement="> 6.00"
molecule="CCN(Cc1ccc(-c2ccnc3[nH]c(=O)ccc23)cc1)S(N)(=O)=O [Example 51, hydrochloride]" measured_metric=pIC50 reported_measurement="> 6.00"
molecule=NS(=O)(=O)N1CCCN(c2ccnc3[nH]c(=O)ccc23)CC1 measured_metric=pIC50 reported_measurement="5.00 to 6.00"

Shifting focus to the molecule that follows.
Q: If you can, please state the reported pIC50 value of `Cc1ccc(S(=O)(=O)NCc2cccc(-c3ccnc4c3CCC(=O)N4)c2)cc1` .
Result: > 6.00
